tgt: T1, HLA-A*02:01 molecule
T1 construct: MHC class I molecule on T2 cells (ATCC); also called product of an HLA-A*02:01 gene; allele A*02:01
method: flow cytometry, T2 cells
Kindly supply the reported log Kd values for the records listed here.
Give bare numbers.

Answered examples (5):
- binder: "ALAPPTAQL (synthetic 9-mer derived from c-Myb) [peptide of SEQ ID NO: 6]"
  log Kd: -6.58
- binder: "LMEEHGATL (synthetic 9-mer derived from EVC2) [peptide of SEQ ID NO: 13]"
  log Kd: -4.92
- binder: "AVLAPAVLL (synthetic 9-mer derived from EVC1) [peptide of SEQ ID NO: 27]"
  log Kd: -5.15
- binder: "LLEEHGATL (synthetic 9-mer derived from EVC2) [peptide of SEQ ID NO: 41]"
  log Kd: -5.6
- binder: "VLPPARHST (synthetic 9-mer derived from c-Myb) [peptide of SEQ ID NO: 54]"
  log Kd: -5.11

// each listed binder needs a value for log Kd
1. LLITRKSFI (synthetic 9-mer derived from Fas; also called A10) [peptide of SEQ ID NO: 16]
2. ALRPAPALL (synthetic 9-mer derived from EVC1) [peptide of SEQ ID NO: 26]
3. LIEEHGATL (synthetic 9-mer derived from EVC2) [peptide of SEQ ID NO: 40]
4. CTDEHQWQL (synthetic 9-mer derived from EVC1) [peptide of SEQ ID NO: 39]
5. LTEEHGATL (synthetic 9-mer derived from EVC2) [peptide of SEQ ID NO: 42]
6. ATGDCSSFI (synthetic 9-mer derived from c-Myb) [peptide of SEQ ID NO: 59]

(A)
1: -5.13; 2: -6.11; 3: -4.5; 4: -5.04; 5: -4.09; 6: -4.08

// data source = patent US20250236642A1
